- measurement_target: T1, human CDH6 with EC1 removed, on HEK293T cells (HEK293T-hCDH6-EC1 deletion) (human, UniProt P55285 160-790)
- T1 construct: Signal peptide not removed here
- T1 sequence: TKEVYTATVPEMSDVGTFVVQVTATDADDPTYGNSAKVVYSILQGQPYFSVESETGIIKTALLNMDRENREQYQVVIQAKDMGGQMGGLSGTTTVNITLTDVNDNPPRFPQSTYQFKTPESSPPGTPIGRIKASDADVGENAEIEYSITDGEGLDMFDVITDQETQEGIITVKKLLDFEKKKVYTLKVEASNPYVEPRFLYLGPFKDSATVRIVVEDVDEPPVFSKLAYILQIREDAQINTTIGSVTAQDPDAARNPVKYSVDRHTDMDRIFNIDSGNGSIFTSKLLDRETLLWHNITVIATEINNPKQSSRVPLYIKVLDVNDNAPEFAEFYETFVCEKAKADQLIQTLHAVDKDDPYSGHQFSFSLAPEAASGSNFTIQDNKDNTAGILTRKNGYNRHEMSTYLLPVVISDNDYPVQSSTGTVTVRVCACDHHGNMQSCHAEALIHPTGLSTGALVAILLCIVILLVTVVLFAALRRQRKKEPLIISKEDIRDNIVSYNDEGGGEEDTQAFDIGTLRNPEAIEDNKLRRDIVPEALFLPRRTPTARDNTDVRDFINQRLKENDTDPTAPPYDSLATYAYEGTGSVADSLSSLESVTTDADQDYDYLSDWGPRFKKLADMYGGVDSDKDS
- assay_info: FACS, HEK293T-hCDH6-EC1 deletion cells
Parameter Max MFI: see the listing below.
Write the value in MFI as a bare number.

Please review the following examples before continuing.
1. CHI-CDH6-12 (antibody, human IgG1, kappa, V domains shown, also called CH1-CDH6-12; chimeric antibody of murine CDH6-12) VH: EVNLVESGGGLVQPGDSLTLSCSASGFTFTDYYMSWVRQFPGKALEWLALIRNKANSYTTEYSASVKGRFTISRDNSQSILYLQMNALRAEDSATYYCARDSYYSHDGFAYWGQGTLVTVSA VL: DIVLTQSPASLAVSLGQRATISCRASKSVSTSSYTYMHWYQQKPGQPPKLLIKFASYLESGVPARFSGSGSGTDFTLNIHPVEEEDAATYYCQHSREFPFTFGTGTKLEIKR : 9860
2. CHI-CDH6-3 (antibody, human IgG1, kappa, V domains shown, also called CH1-CDH6-3; chimeric antibody of murine CDH6-3) VH: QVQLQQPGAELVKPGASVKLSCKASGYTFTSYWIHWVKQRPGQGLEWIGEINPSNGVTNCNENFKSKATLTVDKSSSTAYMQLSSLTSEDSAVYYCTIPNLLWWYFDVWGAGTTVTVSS VL: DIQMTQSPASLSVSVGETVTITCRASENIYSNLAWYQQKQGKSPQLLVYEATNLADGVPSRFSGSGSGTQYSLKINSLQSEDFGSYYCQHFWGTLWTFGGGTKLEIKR : 11100

query: I am curious: what Max MFI value has been reported for NOV0712 (antibody, human IgG1, kappa, V domains shown, Positive control, variable regions from WO2018212136A1; also called positive control anti-human CDH6 antibody) VH: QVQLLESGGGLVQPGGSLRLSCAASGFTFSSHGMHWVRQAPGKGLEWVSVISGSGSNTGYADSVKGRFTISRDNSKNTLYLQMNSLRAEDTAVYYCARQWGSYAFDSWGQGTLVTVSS VL: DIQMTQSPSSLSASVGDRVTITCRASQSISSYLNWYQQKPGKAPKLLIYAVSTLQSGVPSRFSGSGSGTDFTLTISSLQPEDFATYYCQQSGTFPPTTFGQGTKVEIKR ?
result: 23600
